Origin of values: PubChem BioAssay

- assay-target: Calmodulin-1 (Homo sapiens) (UniProt P0DP23)
- assay-explanation: CALM1 binders on microarrays, EGTA buffer, profiling panel, biochemical, small-molecule microarray, Cy5-labelled CALM1 (AID 1111);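 also: labelled calmodulin applied in Tris saline Tween buffer holding calcium plus EGTA and DTT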
- conditions: Cy5-CALM1 binding fluorescence, higher = more signal
Returns t if the recorded composite z-score is greater than or equal to 1, and f otherwise.

In plain terms: is recorded composite z-score at least 1 for O[C@@H](Cc1ccccc1)[C@H]1C2C=CCCC=C2CN1Cc1cccc(Cl)c1 (some centres not stated) ?
f

Quick check, composite z-score >= 1? Oc1ccc2cc[n+](Cc3sc4ccccc4c3Cl)cc2c1
f

Has COC(=O)[C@@]1(Cc2ccc(OC)cc2)[C@H]2c3cc(C(=O)N4CCCC4)n(Cc4ccc(O)c(OC)c4)c3C[C@H]2CN1C(=O)c1ccccc1 a recorded composite z-score greater than or equal to 1?
t

Determine whether measured composite z-score meets or exceeds 1 for COC(=O)[C@@]1(Cc2ccc(F)cc2)[C@H]2c3cc(C(=O)N(C)C)n(Cc4ccc(Cl)c(C(F)(F)F)c4)c3C[C@H]2CN1C(=O)c1ccccc1
t

For this molecule, is measured composite z-score 1 or higher? CC(C)NC(=O)[C@@H]1c2ccccc2C(=O)N(C2Cc3ccccc3C2)[C@H]1c1ccc(CO)cc1
f

Has [N-]=[N+]=NCc1ccccc1[C@@H]1OC(c2ccc(OCCCO)cc2)=N[C@]1(Cc1ccccc1)C(=O)NCC(O)CO (some centres not stated) a recorded composite z-score greater than or equal to 1?
f

Decide: is the reported value of composite z-score for CCCC=C(CCC)[C@@H](NC(=O)c1cccs1)c1ccc(C(F)(F)F)cc1 equal to or greater than 1?
t
